B1: Twister Ribozyme (parent)
chain: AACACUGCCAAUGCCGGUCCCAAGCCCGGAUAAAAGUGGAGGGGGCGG

variants of: B1; experiment: self-cleavage, relative activity (ratio to wild type); higher = more cleavage; co-transcriptional
Recorded self-cleavage for the following variants
Please reply with the number alone, leaving off any unit.

[Q] For AACACUGCCAAUGCCGGUCCCGAGCCCGGAUAAAAGUGGAAGGGGCGG [A22G G41A] , what is its reported self-cleavage?
[A] 0.0888

[Q] # query: self-cleavage of entry AACACUGCCAAUGUCGGUCCCAAGCCCGGAUAAAAGUGGAGCGGGCGG [C14U G42C]
[A] 0.59

[Q] Any idea what self-cleavage was measured for UACACUGCCAAUGCCGGUCUCAAGCCCGGAUAAAAGUGGAGGGGGCGG [A1U C20U] ?
[A] 0.0599

[Q] // returns reported self-cleavage for input AACACUCCCCAUGCCGGUCCCAAGCCCGGAUAAAAGUGGAGGGGGCGG [G7C A10C]
[A] 0.0829

[Q] Given AACACUGCCAAUGCCGGUCCCUAGCCCGGAUAAGAGUGGAGGGGGCGG [A22U A34G] , state its recorded self-cleavage.
[A] 0.535

[Q] # query: self-cleavage of entry AACACUGCCAAUGCCGCUUCCAAGCCCGGAUAAAAGUGGAGGGGGCGG [G17C C19U]
[A] 0.105

[Q] Return reported self-cleavage; argument: AACACUGCCCAUGCCGGUCCCAAGCCCGGAUAAAAGUGGAGGUGGCGG [A10C G43U]
[A] 0.482
